target: MAP kinase-activated protein kinase 2 (Homo sapiens, UniProt P49137); assay: Inhibition of MK2 using TAMRA-labeled peptide as substrate pre-incubated for 30 mins prior substrate addition measured after 30 mins incubation in dark using fluorescence polarization assay
Sequence (P49137 whole entry): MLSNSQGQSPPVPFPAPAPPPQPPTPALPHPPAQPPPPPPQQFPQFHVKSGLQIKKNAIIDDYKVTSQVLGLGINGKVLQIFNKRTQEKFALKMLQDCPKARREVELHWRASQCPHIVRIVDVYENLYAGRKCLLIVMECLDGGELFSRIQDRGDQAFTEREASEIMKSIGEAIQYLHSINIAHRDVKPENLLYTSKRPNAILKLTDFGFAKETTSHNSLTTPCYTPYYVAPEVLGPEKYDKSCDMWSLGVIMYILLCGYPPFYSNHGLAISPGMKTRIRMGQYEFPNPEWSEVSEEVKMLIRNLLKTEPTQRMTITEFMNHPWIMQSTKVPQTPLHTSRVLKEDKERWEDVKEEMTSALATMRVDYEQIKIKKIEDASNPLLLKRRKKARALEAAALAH
PROPERTY MEASURED: IC50 (nM)

I = N#Cc1ccc(-c2cc3c(o2)-c2nncn2-c2ccc(N4CCNCC4)cc2C3)cc1
II = Clc1ccc(-c2cc3c(o2)-c2nccn2-c2ccc(N4CCNCC4)cc2OC3)cc1
Of I and II , which one carries the higher reported IC50? Respond using the label that marks the chosen record.
II

a = Clc1ccc(-c2cc3c(o2)-c2nncn2-c2ccc(N4CCNCC4)cc2C3)cc1
b = N#Cc1ccc(-c2cc3c(o2)-c2nccn2-c2ccc(N4CCNCC4)cc2C3)cc1
Of a and b , which one carries the higher reported IC50? Respond using the label that marks the chosen record.
a
(a: 9.3 nM, b: 2.9 nM)
